# TESTED_ON: FXR (Homo sapiens, UniProt Q96RI1)
# Construct: 5 μL of 20 nM FXR-LBD Complete Coregulator buffer G; purchased ThermoFisher PV4833
# EXPERIMENT_SUMMARY: FXR antagonist screening by TR-FRET (LanthaScreen TR-FRET FXR co-activation assay kit)
# Type: biochemical
# TEST_SETTINGS: Table 1.1, FXR antagonistic activity; TR-FRET with CDCA; geometric means of at least two independent runs
OBSERVATION_TYPE: IC50

> print(dat)
                         structure.notation  observation.type    meas.value
1  Cc1c(C(=O)O)oc2ccc(S(=O)(=O)N(CCc3ccccc3)Cc3ccc(Br)cc3C(F)(F)F)cc12              IC50  50 to 100 µM

# return IC50 for each item in the list
1. Cc1c(C(=O)O)oc2ccc(S(=O)(=O)N(CCc3ccccc3)c3ccccc3N3CCN(C(=O)CC(C)(C)C)CC3)cc12
2. Cc1c(C(=O)O)oc2ccc(S(=O)(=O)N(CCc3ccccc3)CCc3ccccc3)cc12
3. Cc1c(C(=O)O)oc2ccc(S(=O)(=O)N(CCc3ccccc3)Cc3cccc(Br)c3)cc12
4. Cc1c(C(=O)O)oc2ccc(S(=O)(=O)N(CCc3ccccc3)c3ccc(N4CCN(Cc5ccccc5)CC4)cc3)cc12
5. CCOC(=O)c1oc2ccc(S(=O)(=O)N(CCc3ccccc3)c3ccc(N4CCN(C(=O)N(C)C)CC4)cc3)cc2c1C
6. Cc1c(C(=O)O)oc2ccc(S(=O)(=O)N(CCc3ccccc3)Cc3ccc(F)cc3)cc12

0.1 to 10 µM
10 to 50 µM
10 to 50 µM
10 to 50 µM
50 to 100 µM
10 to 50 µM

====

# TESTED_ON: FXR (Homo sapiens, UniProt Q96RI1)
# Construct: 5 μL of 20 nM FXR-LBD Complete Coregulator buffer G; purchased ThermoFisher PV4833
# Sequence (Q96RI1 262-486 limits assumed): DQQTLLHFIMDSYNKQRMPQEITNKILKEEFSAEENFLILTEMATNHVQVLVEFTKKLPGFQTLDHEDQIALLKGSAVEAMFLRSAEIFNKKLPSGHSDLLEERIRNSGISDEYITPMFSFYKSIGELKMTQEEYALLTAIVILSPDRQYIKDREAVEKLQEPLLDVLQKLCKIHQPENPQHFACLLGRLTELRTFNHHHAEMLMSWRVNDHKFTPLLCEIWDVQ
# EXPERIMENT_SUMMARY: FXR antagonist screening by TR-FRET (LanthaScreen TR-FRET FXR co-activation assay kit)
# Type: biochemical
# TEST_SETTINGS: Table 1.1, FXR antagonistic activity; TR-FRET with CDCA; geometric means of at least two independent runs
OBSERVATION_TYPE: IC50

> print(dat)
                         structure.notation   meas.value
1  Cc1c(C(=O)O)oc2ccc(S(=O)(=O)N(CCc3ccccc3)Cc3ccc(F)cc3C(F)(F)F)cc12  10 to 50 µM

# batch size: 6; output IC50 per entry
1. CCOC(=O)c1oc2ccc(S(=O)(=O)N(CCc3ccccc3)Cc3ccc4ccccc4c3)cc2c1C
2. Cc1c(C(=O)O)oc2ccc(S(=O)(=O)N(CCc3ccccc3)c3ccccc3N3CC[N+](C)(C)CC3)cc12
3. Cc1c(C(=O)O)oc2ccc(S(=O)(=O)N(CCc3ccccc3)Cc3ccc(F)cc3F)cc12
4. Cc1c(C(=O)O)oc2ccc(S(=O)(=O)N(CCc3ccccc3)Cc3c(F)cc(Cl)cc3F)cc12
5. Cc1c(C(=O)O)oc2ccc(S(=O)(=O)N(CCc3ccccc3)c3ccccc3)cc12
6. CCOC(=O)c1oc2ccc(S(=O)(=O)N(CCc3ccccc3)Cc3cc(F)ccc3C)cc2c1C

["50 to 100 µM", "50 to 100 µM", "10 to 50 µM", "10 to 50 µM", "50 to 100 µM", "50 to 100 µM"]

====

# TESTED_ON: FXR (Homo sapiens, UniProt Q96RI1)
# Construct: 5 μL of 20 nM FXR-LBD Complete Coregulator buffer G; purchased ThermoFisher PV4833
# EXPERIMENT_SUMMARY: FXR antagonist screening by TR-FRET (LanthaScreen TR-FRET FXR co-activation assay kit)
# Format: biochemical
# TEST_SETTINGS: Table 1.1, FXR antagonistic activity; TR-FRET with CDCA; geometric means of at least two independent runs
OBSERVATION_TYPE: IC50

Dear colleague, could you send me IC50 for each of the items below? Thanks.
1. Cc1c(C(=O)O)oc2ccc(S(=O)(=O)N(CCc3ccccc3)Cc3ccc(Cl)cc3)cc12
2. Cc1c(C(=O)O)oc2ccc(S(=O)(=O)N(CCc3ccccc3)Cc3c(F)cccc3C(F)(F)F)cc12
3. Cc1c(C(=O)O)oc2ccc(S(=O)(=O)N(CCc3ccccc3)c3cccc(N4CCN(C)CC4)c3)cc12
4. Cc1c(C(=O)O)oc2ccc(S(=O)(=O)N(CCc3ccccc3)Cc3ccc(Cl)cc3Cl)cc12
5. Cc1c(C(=O)O)oc2ccc(S(=O)(=O)N(CCc3ccccc3)Cc3c(Cl)cccc3Cl)cc12
6. Cc1c(C(=O)O)oc2ccc(S(=O)(=O)N(CCc3ccccc3)Cc3ccc(OC(F)(F)F)cc3)cc12
7. CCOC(=O)c1oc2ccc(S(=O)(=O)N(CCc3ccccc3)c3ccc(N4CCN(C(=O)c5ccccc5)CC4)cc3)cc2c1C

1: 10 to 50 µM; 2: 10 to 50 µM; 3: 50 to 100 µM; 4: 10 to 50 µM; 5: 0.1 to 10 µM; 6: 10 to 50 µM; 7: 50 to 100 µM

====

OBSERVATION_TYPE: melting point

> print(dat)
                         structure.notation       meas.value
1  Cc1c(C(=O)O)oc2ccc(S(=O)(=O)N(CCc3ccccc3)Cc3ccc(C(N)=O)cc3)cc12  > 380 °C (dec.)
2  Cc1c(C(=O)O)oc2ccc(S(=O)(=O)N(CCc3ccccc3)Cc3ccc(C(F)(F)F)cc3)cc12         > 192 °C
3  Cc1c(C(=O)O)oc2ccc(S(=O)(=O)N(CCc3ccccc3)Cc3ccc(C(=O)c4ccccc4)cc3)cc12    192 to 193 °C
4  Cc1c(C(=O)O)oc2ccc(S(=O)(=O)N(CCc3ccccc3)Cc3ccc(N4CCOCC4)cc3)cc12  > 380 °C (dec.)
5  Cc1c(C(=O)O)oc2ccc(S(=O)(=O)N(CCc3ccccc3)Cc3c(F)cccc3Cl)cc12    195 to 196 °C
6  Cc1c(C(=O)O)oc2ccc(S(=O)(=O)N(CCc3ccccc3)Cc3ccc(Cl)cc3F)cc12  > 380 °C (dec.)

Shift focus to the following entry.
Fill blank: measured melting point of the compound Cc1cccc(CN(CCc2ccccc2)S(=O)(=O)c2ccc3oc(C(=O)O)c(C)c3c2)c1 is ____.
> 380 °C (dec.)

====

# TESTED_ON: FXR (Homo sapiens, UniProt Q96RI1)
# Construct: 5 μL of 20 nM FXR-LBD Complete Coregulator buffer G; purchased ThermoFisher PV4833
# EXPERIMENT_SUMMARY: FXR antagonist screening by TR-FRET (LanthaScreen TR-FRET FXR co-activation assay kit)
# Type: biochemical
# TEST_SETTINGS: Table 1.1, FXR antagonistic activity; TR-FRET with CDCA; geometric means of at least two independent runs
Please provide measured IC50 for the entries that follow.

Worked examples, 10 molecules total:
> print(dat)
                          structure.notation    meas.value
 1  Cc1c(C(=O)O)oc2ccc(S(=O)(=O)N(CCc3ccccc3)Cc3ccc(-c4ccccc4)cc3)cc12  50 to 100 µM
 2  CCOC(=O)c1oc2ccc(S(=O)(=O)N(CCc3ccccc3)Cc3ccccc3)cc2c1C  50 to 100 µM
 3  CCOC(=O)c1oc2ccc(S(=O)(=O)N(CCc3ccccc3)c3ccc(Cc4ccccc4)cc3)cc2c1C  50 to 100 µM
 4  CCOC(=O)c1oc2ccc(S(=O)(=O)N(CCc3ccccc3)c3ccc(N4CCN(C)CC4)cc3)cc2c1C  50 to 100 µM
 5  CCOC(=O)c1oc2ccc(S(=O)(=O)N(CCc3ccccc3)Cc3ccc(Br)cc3)cc2c1C  50 to 100 µM
 6  CCOC(=O)c1oc2ccc(S(=O)(=O)N(CCc3ccccc3)Cc3ccccc3C)cc2c1C  50 to 100 µM
 7  CCOC(=O)c1oc2ccc(S(=O)(=O)N(CCc3ccccc3)Cc3ccc(Br)cc3F)cc2c1C  50 to 100 µM
 8  CCOC(=O)c1oc2ccc(S(=O)(=O)N(CCc3ccccc3)Cc3ccccc3N3CCN(S(C)(=O)=O)CC3)cc2c1C  50 to 100 µM
 9  CC(=O)c1ccc(CN(CCc2ccccc2)S(=O)(=O)c2ccc3oc(C(=O)O)c(C)c3c2)cc1  50 to 100 µM
10  CCOC(=O)c1oc2ccc(S(=O)(=O)N(CCc3ccccc3)Cc3ccccc3[N+](=O)[O-])cc2c1C  50 to 100 µM

I have 7 molecules here; please give me IC50 for each one.
1. CCOC(=O)c1oc2ccc(S(=O)(=O)N(CCc3ccccc3)Cc3ccc(-c4ccccc4)cc3)cc2c1C
2. CCOC(=O)c1oc2ccc(S(=O)(=O)N(CCc3ccccc3)c3ccc(N4CCN(C(=O)OC(C)(C)C)CC4)nc3)cc2c1C
3. CCOC(=O)c1oc2ccc(S(=O)(=O)N(CCc3ccccc3)Cc3cccc(C(F)(F)F)c3)cc2c1C
4. Cc1c(C(=O)O)oc2ccc(S(=O)(=O)N(CCc3ccccc3)Cc3ccccc3N3CCN(C(=O)c4ccccc4)CC3)cc12
5. Cc1c(C(=O)O)oc2ccc(S(=O)(=O)N(CCc3ccccc3)Cc3ccc(SC(F)(F)F)cc3)cc12
6. CCOC(=O)c1oc2ccc(S(=O)(=O)N(CCc3ccccc3)Cc3c(F)cccc3C(F)(F)F)cc2c1C
7. CCOC(=O)c1oc2ccc(S(=O)(=O)N(CCc3ccccc3)Cc3ccc(C(=O)OC)cc3)cc2c1C

["50 to 100 µM", "50 to 100 µM", "50 to 100 µM", "0.1 to 10 µM", "10 to 50 µM", "50 to 100 µM", "50 to 100 µM"]

// each listed molecule needs a value for IC50
1. CCOC(=O)c1oc2ccc(S(=O)(=O)N(CCc3ccccc3)Cc3cccc4cccnc34)cc2c1C
2. CCOC(=O)c1oc2ccc(S(=O)(=O)N(CCc3ccccc3)Cc3cccc4ccccc34)cc2c1C

1. 50 to 100 µM
2. 50 to 100 µM

Go through the list and state IC50 for each entry.
1. CCOC(=O)c1oc2ccc(S(=O)(=O)N(CCc3ccccc3)Cc3ccccc3F)cc2c1C
2. CCOC(=O)c1oc2ccc(S(=O)(=O)N(CCc3ccccc3)c3ccccc3N3CCN(C(=O)CC(C)(C)C)CC3)cc2c1C
3. CCOC(=O)c1oc2ccc(S(=O)(=O)N(CCc3ccccc3)Cc3ccc(-c4ccccc4C#N)cc3)cc2c1C
4. Cc1c(C(=O)O)oc2ccc(S(=O)(=O)N(CCc3ccccc3)c3ccc(Oc4ccccc4)cc3)cc12
5. CCOC(=O)c1oc2ccc(S(=O)(=O)N(CCc3ccccc3)Cc3ccccc3N3CCN(C)CC3)cc2c1C
6. CCOC(=O)c1oc2ccc(S(=O)(=O)N(CCc3ccccc3)c3ccc(N4CCN(C(C)=O)CC4)cc3)cc2c1C
7. Cc1c(C(=O)O)oc2ccc(S(=O)(=O)N(CCc3ccccc3)Cc3cccc(Cl)c3)cc12

1: 50 to 100 µM; 2: 50 to 100 µM; 3: 50 to 100 µM; 4: 0.1 to 10 µM; 5: 50 to 100 µM; 6: 50 to 100 µM; 7: 10 to 50 µM

// input: 2 molecules below; output: IC50 for each
1. Cc1c(C(=O)O)oc2ccc(S(=O)(=O)N(CCc3ccccc3)Cc3ccc(Oc4ccccc4)cc3)cc12
2. Cc1cccc(C)c1CN(CCc1ccccc1)S(=O)(=O)c1ccc2oc(C(=O)O)c(C)c2c1

["10 to 50 µM", "0.1 to 10 µM"]
